target: AgifCSP5 (Aphidius gifuensis)
Sequence (A0A3Q9ELG9 entry or part of it): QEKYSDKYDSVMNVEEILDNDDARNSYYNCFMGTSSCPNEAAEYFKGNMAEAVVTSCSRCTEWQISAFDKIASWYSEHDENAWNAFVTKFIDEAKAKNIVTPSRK
experiment: Fluorescence competitive binding assay with 1-NPN probe, wild-type AgifCSP5
conditionDescription: wild-type AgifCSP5, 1-NPN displacement, pH 7.4; read-out: Ki
Response field label takes Criterion met when Ki is strictly below 20 µM and Criterion not met in all other cases.

molecule	target	answerLabel
CC1=COC(=O)C2C(C)CCC12 (stereo not shown)	AgifCSP5 (Aphidius gifuensis)	Criterion not met
C=C(C)[C@H]1CC=C(C)CC1 [(R)-(+)-Limonene]	AgifCSP5 (Aphidius gifuensis)	Criterion met
C=CC(=C)CC/C=C(\C)CCC=C(C)C [(E)-β-Farnesene]	AgifCSP5 (Aphidius gifuensis)	Criterion met
C=C(C)[C@@H]1CC=C(C)CC1 [(S)-(−)-Limonene]	AgifCSP5 (Aphidius gifuensis)	Criterion not met
CC1=CCC(C(C)(C)O)CC1 (stereo not drawn) [(+)-α-Terpineol]	AgifCSP5 (Aphidius gifuensis)	Criterion not met
C=C/C(C)=C\CC=C(C)C [(Z)-β-ocimene]	AgifCSP5 (Aphidius gifuensis)	Criterion met
CC/C=C\CCO	AgifCSP5 (Aphidius gifuensis)	Criterion not met
